target: T1, SARS-CoV-2 spike S1 subunit (SARS-CoV-2, UniProt P0DTC2 16-685); assay: ELISA
T1 construct: domain: S1 subunit

{"binder": "EW 9C (antibody, V domains shown) VH: EVQLVESGGGVVQPGASLRLSCVASGFTFNNFGFHWVRQAPGKGLEWLAVISYEGSKTYYAESLKGRFTISRDTSKNTVYLQMNSLRAEDTAVYYCARATSIFWFGEGRNWFDPWGQGTMVTVSS VL: EIVLTQSPGTVSLSAGERATLSCRASQNVGTDLAWYVQRPGQAPRLLIYDTSNKATGIPARFSGRGSGTDFTLTIDSLEPEDFAVYYCQQRSNWPLTFGGGTKVEIR", "binding result": "no binding"}
{"binder": "EW 9C-1 (antibody, V domains shown) VH: EVQLVESGGGVVQPGASLRLSCVASGFTFNNFGFHWVRQAPGKGLEWLAVISYEGSKTYYAESLKGRFTISRDTSKNTVYLQMNSLRAEDTAVYYCARATSIFWFGEGRNWFDPWGQGALVTVSS VL: EIVMTQSPGTVSLSAGERATLSCRASQNVGTDLAWYVQRPGQAPRLLIYDTSNRATGIPARFSGRGSGTDFTLTIDSLEPEDFAVYYCQQRSNWPLTFGGGTKVEIK", "binding result": "no binding"}
{"binder": "FD 1D (antibody, V domains shown) VH: EVQLVESGGGVVQPGRSLRLSCAASGFTFSSYAMHWVRQAPGKGLEWVAVISYDGSNKYYADSVKGRFTISRDNSKNTLYLQMNSLRAEDTAVYYCARAGSGSYLNWFDPWGQGTLVTVSS VL: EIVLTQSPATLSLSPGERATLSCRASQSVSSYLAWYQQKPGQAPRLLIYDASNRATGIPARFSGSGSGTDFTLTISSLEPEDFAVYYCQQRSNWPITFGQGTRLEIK", "binding result": "no binding"}
